Tested target: T1, RBD domain of the spike protein of SARS-CoV-2 virus (Acro Biosystems SPD-C52H3) (SARS-CoV-2, UniProt P0DTC2 319-537)
T1 construct: domain: RBD domain
Protocol description: Affinity (SPR) by Octet; antigen not named, taken from the epitope column
pKd: −log10 of the molar value.
I'd be grateful if you could share measured pKd for these entries.

// batch mode: one pKd value per listed entry
1. YANG-1111 (antibody, V domains shown) VH: EVQLVESGGGLIQPGGSLRLSCAASGFTFSSYSINWVRQAPGKGLEWVSFISGSSTTIYYADSVKGRFTISRDSAKNSLYLQMNSLRDEDTAVYYCARGLRSSIAPRPDYFDSWGQGILVTVSS VL: SYVLTQPPSVSVAPGKTARITCGGNNIGSKGVHWYQQKPGQAPVLVIYYDSDRPSGIPERFSGSNSGNTATLTISRVEAGDEADYSCQVWDSSSDHPVFGGGTKLTVQ
2. YANG-1115 (antibody, V domains shown) VH: EVQLVESGGGLVKPGGSLRLSCAASGFTFSSYSMNWVRQAPGKGLEWVSSISTGSSYIFYADSVKGRFTISRDNAKNSLYLQMNSLRAEDTAVYYCAKTGDLPFFDYWGQGTLVTVSS VL: QSALTQPASVSGSPGQSITISCTGTSSDVGRYNYVSWYQQHPGKAPKLMIYEVSNRPSGVSNRFSGSKSGNTASLTISGLQAEDEADYYCSSYTSSSTMVFGGGTKLSVL
3. YANG-1105 (antibody, V domains shown) VH: EVQVVESGGGLIQPGGSLRLSCAASGITVSRNYMNWVRQAPGKGLEWVSVIYSGGSTFYADSVKGRFTISRDNSKNTLYLQMNSLRADDTGVYYCAREGYGMDVWGQGTTVTVSS VL: DIQLTQSPSFLSASVGDRVTITCWASQGISSYLAWYQQKPGKAPKLLIYSASTLQSGVPSRFSGSGSGTEFTLTINSLQPEDFATYYCQQLNSHPCSFGQGTKLEIK

1. > 10.00
2. > 10.00
3. > 10.00
